Biological target: human VPAC2 (Homo sapiens)
Construct: expressed in transfected cells
Sequence (P41587 24-438): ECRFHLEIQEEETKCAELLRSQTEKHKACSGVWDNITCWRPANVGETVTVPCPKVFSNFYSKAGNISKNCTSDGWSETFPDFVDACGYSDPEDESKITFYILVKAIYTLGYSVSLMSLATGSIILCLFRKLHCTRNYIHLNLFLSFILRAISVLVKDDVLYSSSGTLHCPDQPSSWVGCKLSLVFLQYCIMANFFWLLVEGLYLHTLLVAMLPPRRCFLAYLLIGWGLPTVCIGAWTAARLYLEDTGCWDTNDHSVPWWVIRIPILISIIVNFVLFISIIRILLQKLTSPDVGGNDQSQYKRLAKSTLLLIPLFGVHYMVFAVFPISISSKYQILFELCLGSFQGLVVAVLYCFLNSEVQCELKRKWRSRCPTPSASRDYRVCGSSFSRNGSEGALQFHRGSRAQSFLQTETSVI
Experiment: Filter binding assay, membranes from stable VPAC2 cell line, 125I-labeled VIP tracer
Conditions: read-out: Human receptor binding (IC50; nM) VPAC2
Square brackets hold non-standard residues; d marks the D form. Ends that are not written are not given here. * marks the point of attachment. Hexanoyl = CCCCCC(=O)*; Aib = CC(C)(N)C(=O)O
Readout kind: log10 of IC50 (log10 of the value in nM)
Scale: log10; quantity: IC50; unit before log: nM

Answered cases to consult:
Substance	log10 of IC50
C6-HSDAVFTEQY(OMe)TOrnLRAibQVAK(CO(CH2)2SPEG40K)AibOrnYLQSIOrnOrnGGPSSGAPPPS-NH2 (HSDAVFTEQYTXLRXQVAXXXYLQSIXXGGPSSGAPPPS; non-natural residues) [Agonist P432]	2.11
P300 (Hexanoyl-HSDAVFTDNYTRLR[Aib]QVAA[Aib]KYLQSIKNKRYGGPSSGAPPPC(PEG 40 kDa)-NH2) [Agonist P300]	0.25

For every item below, please supply its log10 of IC50.
1. C6-HSDAVFTDNYTRLRAibQVAAKAibYLQSIKNKRYGGPSSGAPPPC(PEG40K)-NH2 (Hexanoyl-HSDAVFTDNYTRLR[Aib]QVAAK[Aib]YLQSIKNKRYGGPSSGAPPPC(PEG 40 kDa)-NH2) [Agonist P286]
2. C6-HDAVFTEQY(OMe)TOrnLRAibQVAAAibOrnYLQSIOrnOrnGGPSSGAPPPC(PEG60K)-NH2 [Agonist P404]

[-0.34, 1.12]

Return reported log10 of IC50 values for all items listed beneath this line.
1. P247 (HSDAVFTDNYTRLRRQVAARKYLQSIRNGGPSSGAPPPS; not fully specified (residue 21, N-terminus)) [Agonist P247]
2. P245 (HSDAVFTDNYTRLRKQVAARRYLQSIRNGGPSSGAPPPS; not fully specified (residue 15, N-terminus)) [Agonist P245]
3. C6-HSDAVFTDNYTOrnLRAibQVAAAibKYLQC(PEG40K)IOrnNOrnGGPSSGAPPPS (HSDAVFTDNYTXLRXQVAAXKYLQCIXNXGGPSSGAPPPS; non-natural residues) [Agonist P373]
4. P137: PEGylated material obtained from P120 and methoxy-PEG2-MAL-40K (HSDAVFTDNYTRLRKQVAAKKYLQSIKNKRYGGPSSGAPPPC; also: PEGylated with methoxy-PEG2-MAL-40K, site not given here) [Agonist P137]
5. C6-HSDAVFTDNYThRLRAibQVAAAibKYLQSIhRNhRhRYGGPSSGAPPPC(PEG40K)-NH2 (HSDAVFTDNYTXLRXQVAAXKYLQSIXNXXYGGPSSGAPPPC; non-natural residues) [Agonist P340]
6. P219 (Hexanoyl-HSDAVFTDNYTRLRRQVAAK(PEG 20 kDa)RYLQSIRNGGPSSGAPPPS) [Agonist P219]

1. 2.55
2. 2.96
3. 2.05
4. -0.19
5. 0.68
6. 1.83

###

Target: human VPAC2 (Homo sapiens)
Construct: expressed in transfected cells
Sequence (P41587 24-438): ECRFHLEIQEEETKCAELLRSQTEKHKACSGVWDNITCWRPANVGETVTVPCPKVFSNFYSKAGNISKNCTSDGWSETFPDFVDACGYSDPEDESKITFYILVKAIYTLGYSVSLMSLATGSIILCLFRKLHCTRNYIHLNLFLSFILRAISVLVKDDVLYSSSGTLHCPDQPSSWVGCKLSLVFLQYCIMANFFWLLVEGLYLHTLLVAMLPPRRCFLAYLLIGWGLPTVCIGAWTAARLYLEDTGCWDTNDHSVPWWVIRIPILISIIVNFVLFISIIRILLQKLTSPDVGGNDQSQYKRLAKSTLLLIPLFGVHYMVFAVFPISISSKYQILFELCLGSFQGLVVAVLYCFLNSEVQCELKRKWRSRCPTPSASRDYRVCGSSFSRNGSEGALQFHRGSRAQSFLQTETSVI
Test: Alpha screen in vitro potency: human VPAC2-R mediated cAMP generation
Assay type: cell-based
Settings: single results or mean of two or more independent runs
Square brackets hold non-standard residues; d marks the D form. Ends that are not written are not given here. * marks the point of attachment. Hexanoyl = CCCCCC(=O)*; Aib = CC(C)(N)C(=O)O
Provide the recorded log10 of EC50 for the entries that follow.
Annotation: log10 of EC50, nM basis.

Substance	Target desc	log10 of EC50
C6-HDAVFTEQY(OMe)TOrnLRAibQVAAAibOrnYLQSIOrnOrnGGPSSGAPPPC(PEG60K)-NH2 [Agonist P404]	human VPAC2 (Homo sapiens)	1.23

Can you give me log10 of EC50 for all of these, one by one?
1. P246 (Hexanoyl-HSDAVFTDNYTRLRRQVAAK(PEG 40 kDa)RYLQSIRNGGPSSGAPPPS) [Agonist P246]
2. C6-HSDAVFTEQY(OMe)TOrnLRAibQVAK(CO(CH2)2SPEG40K)AibOrnYLQSIOrnOrnGGPSSGAPPPS-NH2 (HSDAVFTEQYTXLRXQVAXXXYLQSIXXGGPSSGAPPPS; non-natural residues) [Agonist P432]
3. P245 (HSDAVFTDNYTRLRKQVAARRYLQSIRNGGPSSGAPPPS; not fully specified (residue 15, N-terminus)) [Agonist P245]
4. P247 (HSDAVFTDNYTRLRRQVAARKYLQSIRNGGPSSGAPPPS; not fully specified (residue 21, N-terminus)) [Agonist P247]
5. C6-HSDAVFTDNYTRLRAibQVAAKAibYLQSIKNKRYGGPSSGAPPPC(PEG40K)-NH2 (Hexanoyl-HSDAVFTDNYTRLR[Aib]QVAAK[Aib]YLQSIKNKRYGGPSSGAPPPC(PEG 40 kDa)-NH2) [Agonist P286]
6. C6-HSDAVFTDNYThRLRAibQVAAAibKYLQSIhRNhRhRYGGPSSGAPPPC(PEG40K)-NH2 (HSDAVFTDNYTXLRXQVAAXKYLQSIXNXXYGGPSSGAPPPC; non-natural residues) [Agonist P340]

1: 2.60; 2: 1.30; 3: 2.65; 4: 2.12; 5: 0.82; 6: 0.89

For each listed entry, give its log10 of EC50.
1. P137: PEGylated material obtained from P120 and methoxy-PEG2-MAL-40K (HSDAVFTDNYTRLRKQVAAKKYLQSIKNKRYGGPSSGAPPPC; also: PEGylated with methoxy-PEG2-MAL-40K, site not given here) [Agonist P137]
2. P219 (Hexanoyl-HSDAVFTDNYTRLRRQVAAK(PEG 20 kDa)RYLQSIRNGGPSSGAPPPS) [Agonist P219]
3. P300 (Hexanoyl-HSDAVFTDNYTRLR[Aib]QVAA[Aib]KYLQSIKNKRYGGPSSGAPPPC(PEG 40 kDa)-NH2) [Agonist P300]
4. C6-HSDAVFTDNYTOrnLRAibQVAAAibKYLQC(PEG40K)IOrnNOrnGGPSSGAPPPS (HSDAVFTDNYTXLRXQVAAXKYLQCIXNXGGPSSGAPPPS; non-natural residues) [Agonist P373]

[0.92, 1.41, 0.82, 1.53]
